System: HAL-01 (B-Lymphoblastic Leukemia)
Method notes: Bliss excess, mean over the matrix (fraction); higher = more synergy
List of Bliss excess values.
Respond using a number only.

Below, 2 compounds whose answers are already recorded.
>>> experimental_value("NC1(C(=O)N[C@@H](CCO)c2ccc(Cl)cc2)CCN(c2ncnc3[nH]ccc23)CC1 [Capivasertib] + CC(=O)c1c(C)c2cnc(Nc3ccc(N4CCNCC4)cn3)nc2n(C2CCCC2)c1=O [Palbociclib] (first compound max 10 µM, 7x7, partner max 10 µM)")
-0.0425
>>> experimental_value("Cc1nc(Nc2ncc(C(=O)Nc3c(C)cccc3Cl)s2)cc(N2CCN(CCO)CC2)n1 [Dasatinib] + CC(=O)Nc1cccc(-n2c(=O)n(C3CC3)c(=O)c3c(Nc4ccc(I)cc4F)n(C)c(=O)c(C)c32)c1 [Trametinib] (first compound max 2 µM, 7x7, partner max 1 µM)")
0.0436

Here is another compound to look at.
Param item = COc1cccc(OCCCN)c1-c1cc(Nc2cnc(C#N)cn2)n[nH]1 [Prexasertib] + C[C@@H]1COCCN1C2=NC(=NC(=C2)C3(CC3)[S@](=N)(=O)C)C4=C5C=CNC5=NC=C4 [AZD6738] (first compound max 1 µM, 7x7, partner max 10 µM) ; retrieve measured Bliss excess.
-0.022

---

Bliss excess values by entry
System: SW872 (Other Solid Carcinomas)
Method notes: Bliss excess, mean over the matrix (fraction); higher = more synergy
Give only the figure.

>>> experimental_value("C[C@@H]1COCCN1c1cc(C2([S@](C)(=N)=O)CC2)nc(-c2ccnc3[nH]ccc23)n1 [AZD6738] + O=C(c1cc(Cc2n[nH]c(=O)c3ccccc23)ccc1F)N1CCN(C(=O)C2CC2)CC1 [Olaparib] (first compound max 10 µM, 7x7, partner max 10 µM)")
0.0206

Please tell me: Bliss excess of CN(CCO)CC[C@H](CSc1ccccc1)Nc1ccc(S(=O)(=O)NC(=O)c2ccc(N3CCC([C@@H](O)c4ccccc4-c4ccc(Cl)cc4)CC3)cc2)cc1S(=O)(=O)C(F)(F)F [AZD4320] + Nc1ccn([C@@H]2O[C@H](CO)[C@@H](O)C2(F)F)c(=O)n1 [Gemcitabine] (first compound max 1 µM, 7x7, partner max 0.3 µM) , system SW872 (Other Solid Carcinomas)?
0.0199

State its Bliss excess on SW872 (Other Solid Carcinomas): CS(=O)(=O)CCNCc1ccc(-c2ccc3ncnc(Nc4ccc(OCc5cccc(F)c5)c(Cl)c4)c3c2)o1 [Lapatinib] + C[C@@H](Oc1cc(-c2cnn(C3CCNCC3)c2)cnc1N)c1c(Cl)ccc(F)c1Cl [Crizotinib] (first compound max 10 µM, 7x7, partner max 10 µM)
-0.0069

---

Test system: KMRC-1 (Kidney Carcinoma)
Method notes: combination Emax (second highest fraction inhibited in the dose matrix, 72 h); higher = more inhibition; extreme values may be limits of the assay
Listed compounds paired with reported combination Emax
# answer = number (no unit)

Solved entries:
>>> experimental_value("C=CCn1c(=O)c2cnc(Nc3ccc(N4CCN(C)CC4)cc3)nc2n1-c1cccc(C(C)(C)O)n1 [AZD1775] + C1CN(CCC1(C(=O)N[C@@H](CCO)C2=CC=C(C=C2)Cl)N)C3=NC=NC4=C3C=CN4 [Capivasertib] (first compound max 3 µM, partner max 3 µM)")
0.593
>>> experimental_value("O=C(c1cc(Cc2n[nH]c(=O)c3ccccc23)ccc1F)N1CCN(C(=O)C2CC2)CC1 [Olaparib] + CC1(C)CCC(CN2CCN(c3ccc(C(=O)NS(=O)(=O)c4ccc(NCC5CCOCC5)c([N+](=O)[O-])c4)c(Oc4cnc5[nH]ccc5c4)c3)CC2)=C(c2ccc(Cl)cc2)C1 [Venetoclax] (first compound max 10 µM, 7x7, partner max 1 µM)")
0.182
>>> experimental_value("CC1(C)CCC(CN2CCN(c3ccc(C(=O)NS(=O)(=O)c4ccc(NCC5CCOCC5)c([N+](=O)[O-])c4)c(Oc4cnc5[nH]ccc5c4)c3)CC2)=C(c2ccc(Cl)cc2)C1 [Venetoclax] + C[C@@H]1COCCN1C2=NC(=NC(=C2)C3(CC3)[S@](=N)(=O)C)C4=C5C=CNC5=NC=C4 [AZD6738] (first compound max 1 µM, 7x7, partner max 10 µM)")
0.486

Now let's try a different one.
Please look up its combination Emax: CC(=O)Nc1cccc(-n2c(=O)n(C3CC3)c(=O)c3c(Nc4ccc(I)cc4F)n(C)c(=O)c(C)c32)c1 [Trametinib] + Cc1nc(-c2cn3c(n2)-c2ccc(-c4cnn(C(C)(C)C(N)=O)c4)cc2OCC3)n(C(C)C)n1 [Taselisib] (first compound max 1 µM, 7x7, partner max 10 µM)
0.748

---

System: SKN (Other Solid Carcinomas)
Method notes: Bliss excess, mean over the matrix (fraction); higher = more synergy
Response key: label 1 means Bliss excess >= -0.04; label 0 means Bliss excess < -0.04.

Answered examples (3):
>>> label_class("N#Cc1cnc(Nc2cc(NC[C@H]3CNCCO3)c(C(F)(F)F)cn2)cn1 [SRA737] + O=c1[nH]cc(F)c(=O)[nH]1 [5-Fluorouracil] (first compound max 10 µM, 7x7, partner max 20 µM)")
"label 1"
>>> label_class("CCN(CCO)CCCOc1ccc2c(Nc3cc(CC(=O)Nc4cccc(F)c4)[nH]n3)ncnc2c1 [AZD2811] + C[C@@H]1COCCN1C2=NC(=NC(=C2)C3(CC3)[S@](=N)(=O)C)C4=C5C=CNC5=NC=C4 [AZD6738] (first compound max 1 µM, 7x7, partner max 10 µM)")
"label 0"
>>> label_class("O=C(c1cc(Cc2n[nH]c(=O)c3ccccc23)ccc1F)N1CCN(C(=O)C2CC2)CC1 [Olaparib] + CN(CC[C@H](CSC1=CC=CC=C1)NC2=C(C=C(C=C2)S(=O)(=O)NC(=O)C3=CC=C(C=C3)N4CCC(CC4)[C@H](C5=CC=CC=C5C6=CC=C(C=C6)Cl)O)S(=O)(=O)C(F)(F)F)CCO [AZD4320] (first compound max 10 µM, 7x7, partner max 1 µM)")
"label 0"

Would you say CC(=O)c1c(C)c2cnc(Nc3ccc(N4CCNCC4)cn3)nc2n(C2CCCC2)c1=O [Palbociclib] + Cc1c2c(nn1C)CSCc1cc(n(C)n1)CSc1cc(c3ccccc3c1)OCCCc1c(C(=O)O)n(C)c3c-2c(Cl)ccc13 [AZD5991] (first compound max 10 µM, 7x7, partner max 1 µM) shows Bliss excess at minimum -0.04?
label 0

Exam item: decide whether the reported Bliss excess for COc1nnc2ccc(N3CCC(c4ccc(OCCN5CCN(C)C(=O)[C@H]5C)cc4)CC3)nn12 [AZD5153] + CCN(CCO)CCCOc1ccc2c(Nc3cc(CC(=O)Nc4cccc(F)c4)[nH]n3)ncnc2c1 [AZD2811] (first compound max 1 µM, 7x7, partner max 1 µM) is at least -0.04.
label 0

hey, is Bliss excess for this one >= -0.04? COc1cc2c(cc1OCCCCCOc1cc3c(cc1OC)C(=O)N1C=C(C)C[C@H]1C=N3)N=C[C@@H]1CC(C)=CN1C2=O [SG3199] + O=C(c1cc(Cc2n[nH]c(=O)c3ccccc23)ccc1F)N1CCN(C(=O)C2CC2)CC1 [Olaparib] (first compound max 0.001 µM, 7x7, partner max 10 µM)
label 1

---

Catalogue of Bliss excess readings, one per entry.
Test system: SK-LU-1 (Lung Adenocarcinoma)
Method notes: Bliss excess, mean over the matrix (fraction); higher = more synergy

>>> experimental_value("Cc1c2c(nn1C)CSCc1cc(n(C)n1)CSc1cc(c3ccccc3c1)OCCCc1c(C(=O)O)n(C)c3c-2c(Cl)ccc13 [AZD5991] + CCN(CCO)CCCOc1ccc2c(Nc3cc(CC(=O)Nc4cccc(F)c4)[nH]n3)ncnc2c1 [AZD2811] (first compound max 1 µM, 7x7, partner max 1 µM)")
-0.0306
>>> experimental_value("Cn1cnc2c(F)c(Nc3ccc(Br)cc3Cl)c(C(=O)NOCCO)cc21 [Selumetinib] + C[C@@H]1COCCN1C2=NC(=NC(=C2)C3(CC3)[S@](=N)(=O)C)C4=C5C=CNC5=NC=C4 [AZD6738] (first compound max 10 µM, 7x7, partner max 10 µM)")
-0.116
>>> experimental_value("CN(C)CCCOc1ccc(-c2ccc3ncc4c(c3c2)n(C2CCOCC2)c(=O)n4C)cn1 [AZD0156] + O=C(c1cc(Cc2n[nH]c(=O)c3ccccc23)ccc1F)N1CCN(C(=O)C2CC2)CC1 [Olaparib] (first compound max 3 µM, partner max 3 µM)")
-0.017
>>> experimental_value("O=C(c1cc(Cc2n[nH]c(=O)c3ccccc23)ccc1F)N1CCN(C(=O)C2CC2)CC1 [Olaparib] + COc1nnc2ccc(N3CCC(c4ccc(OCCN5CCN(C)C(=O)[C@H]5C)cc4)CC3)nn12 [AZD5153] (first compound max 10 µM, 7x7, partner max 1 µM)")
-0.0623

For Cc1c2c(nn1C)CSCc1cc(n(C)n1)CSc1cc(c3ccccc3c1)OCCCc1c(C(=O)O)n(C)c3c-2c(Cl)ccc13 [AZD5991] + Nc1ccn([C@@H]2O[C@H](CO)[C@@H](O)C2(F)F)c(=O)n1 [Gemcitabine] (first compound max 1 µM, 7x7, partner max 0.3 µM) , what is its reported Bliss excess?
-0.0518

Consider the molecule shown here: N#Cc1cnc(Nc2cc(NC[C@H]3CNCCO3)c(C(F)(F)F)cn2)cn1 [SRA737] + Nc1ccn([C@@H]2O[C@H](CO)[C@@H](O)C2(F)F)c(=O)n1 [Gemcitabine] (first compound max 10 µM, 7x7, partner max 0.3 µM) What is its recorded Bliss excess?
-0.101

What value of measured Bliss excess is listed for CN(CCO)CC[C@H](CSc1ccccc1)Nc1ccc(S(=O)(=O)NC(=O)c2ccc(N3CCC([C@@H](O)c4ccccc4-c4ccc(Cl)cc4)CC3)cc2)cc1S(=O)(=O)C(F)(F)F [AZD4320] + CN(C)CCCOc1ccc(-c2ccc3ncc4c(c3c2)n(C2CCOCC2)c(=O)n4C)cn1 [AZD0156] (first compound max 1 µM, 7x7, partner max 1 µM) ?
-0.0759

GET /values?readout=Bliss excess&item= CN(CCO)CC[C@H](CSc1ccccc1)Nc1ccc(S(=O)(=O)NC(=O)c2ccc(N3CCC([C@@H](O)c4ccccc4-c4ccc(Cl)cc4)CC3)cc2)cc1S(=O)(=O)C(F)(F)F [AZD4320] + C=CCn1c(=O)c2cnc(Nc3ccc(N4CCN(C)CC4)cc3)nc2n1-c1cccc(C(C)(C)O)n1 [AZD1775] (first compound max 1 µM, partner max 1 µM)
-0.038

What value of Bliss excess has been reported for the following molecule? C[C@@H]1COCCN1c1cc(C2([S@](C)(=N)=O)CC2)nc(-c2ccnc3[nH]ccc23)n1 [AZD6738] + O=C(c1cc(Cc2n[nH]c(=O)c3ccccc23)ccc1F)N1CCN(C(=O)C2CC2)CC1 [Olaparib] (first compound max 10 µM, 7x7, partner max 10 µM)
-0.03
